This collection of values is drawn from ChEMBL document CHEMBL2390866.

Experiment: Apparent volume of distribution at steady state in Sprague-Dawley rat at 10 mg/kg, iv
Type: ADME, organism-based
Parameters: dose 10 mg/kg, route intravenous
Settings: in vivo, read-out: Vdss(app)
assay_readout: Vd (L/kg)
Response body: numeric value in L/kg, unit text excluded.

State the recorded Vd for this entry: Cl.Clc1cccc(Nc2nc(Cc3ccccc3)nc3c2CCNCC3)c1
17

----------
Assay: Cmax in Sprague-Dawley rat at 10 mg/kg, po
Type: ADME, organism-based
Set-up: dose 10 mg/kg, route oral
Settings: in vivo
assay_readout: Cmax (ng/mL)
A number alone suffices; assume ng/mL.

Dear colleague, I am looking for the recorded Cmax of the following compound: Cl.Clc1cccc(Nc2nc(Cc3ccccc3)nc3c2CCNCC3)c1
70

----------
Assay: Clearance in Sprague-Dawley rat at 10 mg/kg, iv
Assay type: ADME, organism-based
Design: dose 10 mg/kg, route intravenous
Details: in vivo
assay_readout: clearance
Please state the number and follow it with the unit.

Any idea what clearance was measured for Cl.Clc1cccc(Nc2nc(Cc3ccccc3)nc3c2CCNCC3)c1 ?
97.2 mL/min/kg

----------
Assay: Oral bioavailability in Sprague-Dawley rat at 10 mg/kg
Type: ADME, organism-based
Conditions: in vivo
assay_readout: bioavailability (%)
Note: unit % is implicit; provide only the numeric part.

Request the reported bioavailability associated with Cl.Clc1cccc(Nc2nc(Cc3ccccc3)nc3c2CCNCC3)c1
55.1

----------
# pEC50 per entry
Target: UniProtKB P28335
Sequence (P28335 whole entry): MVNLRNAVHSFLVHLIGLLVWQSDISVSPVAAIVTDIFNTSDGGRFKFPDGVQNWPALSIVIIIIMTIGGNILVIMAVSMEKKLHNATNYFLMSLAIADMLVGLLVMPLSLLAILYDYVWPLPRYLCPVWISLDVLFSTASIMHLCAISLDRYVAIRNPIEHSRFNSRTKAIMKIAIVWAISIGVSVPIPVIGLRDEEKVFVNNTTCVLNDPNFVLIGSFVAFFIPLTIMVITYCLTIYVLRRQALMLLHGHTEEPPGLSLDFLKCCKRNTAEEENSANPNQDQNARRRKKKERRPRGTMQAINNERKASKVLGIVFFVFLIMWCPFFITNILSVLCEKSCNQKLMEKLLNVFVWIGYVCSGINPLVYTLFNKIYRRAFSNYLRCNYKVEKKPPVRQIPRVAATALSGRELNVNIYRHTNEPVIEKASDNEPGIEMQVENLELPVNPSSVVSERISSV
Experiment: Agonist activity at serotonin-activated human recombinant 5HT-2C receptor expressed in HEK293 cells assessed as increase in intracellular calcium level after 5 mins measured for 1 min by fluorescence assay
// field semantics: pEC50 = negative decimal log of concentration (mol/L)

given_smiles=CN1CCN(c2nc3c(c(N(C)C)n2)CCNCC3)CC1 assay_readout=pEC50 result_number=5.92

Please look up its pEC50: CN1CCN(c2nc3c(c(N4CCOCC4)n2)CCNCC3)CC1
5.02

----------
Biological target: UniProt P28223
Assay: Displacement of [3H]-ketanserin from human recombinant 5HT-2A receptor expressed in CHOK1 cell membranes after 60 mins
Set-up: species or system CHO-K1
Below is a list of entries, each paired with its recorded pIC50 value.
Remember the convention: pIC50 equals -log10 of concentration in molar.

Below: 6 compounds and their reported pIC50.
compound=COc1cccc(Nc2nc(N3CCN(c4ccc(F)cc4)CC3)nc3[nH]ncc23)c1 experimental_system="UniProt P28223" result_number=6.46
compound=CN1CCN(c2nc3c(c(OCc4ccco4)n2)CCNCC3)CC1 experimental_system="UniProt P28223" result_number=5.58
compound=Fc1ccc(Nc2nc(N3CCN(Cc4ccccc4)CC3)nc3[nH]ncc23)cc1 experimental_system="UniProt P28223" result_number=7.28
compound=Fc1ccc(Nc2nc(N3CCN(c4ccc(F)cc4)CC3)nc3[nH]ncc23)cc1 experimental_system="UniProt P28223" result_number=7.75
compound=Fc1ccc(Nc2nc(N3CCOCC3)nc3[nH]ncc23)cc1 experimental_system="UniProt P28223" result_number=5.58
compound=Cl.Clc1cccc(Nc2nc(Cc3ccccc3)nc3c2CCNCC3)c1 experimental_system="UniProt P28223" result_number=8.52

Look up pIC50: CC1CC(C)CN(c2nc(Nc3ccc(F)cc3)c3cn[nH]c3n2)C1 (stereo unspecified)
5.23

Subsequent entry: COCCCNc1nc(Nc2ccc(F)cc2)c2cn[nH]c2n1
5.28

----------
Tested on: Mus musculus
Assay: Antiobesity activity in C57BL/6 mouse assessed as inhibition of body weight gain at 50 mg/kg, ip measured after 2 to 12 hrs relative to vehicle-treated control
Assay type: functional
Settings: C57BL/6, ip, route intraperitoneal
// 0.0 strictly below 10% in inhibition in vivo at 50 mg/kg; 1.0 otherwise

Below, 8 compounds whose answers are already recorded.
given_smiles=CN1CCN(c2nc3c(c(Nc4ccc(F)cc4)n2)CCNCC3)CC1 assigned_label=0.0
given_smiles=CN1CCN(c2nc3c(c(N(C)C)n2)CCNCC3)CC1 assigned_label=1.0
given_smiles=c1ccc(Cc2nc3c(c(Nc4ccccc4)n2)CCNCC3)cc1 assigned_label=1.0
given_smiles=Cl.Clc1cccc(Nc2nc(Cc3ccccc3)nc3c2CCNCC3)c1 assigned_label=1.0
given_smiles=Fc1cccc(Nc2nc(Cc3ccccc3)nc3c2CCNCC3)c1 assigned_label=1.0
given_smiles=CN1CCN(c2nc3c(c(N4CCSCC4)n2)CCNCC3)CC1 assigned_label=0.0
given_smiles=CCN(CC)c1nc(N2CCN(C)CC2)nc2c1CCNCC2 assigned_label=0.0
given_smiles=c1ccc(Cc2nc3c(c(N4CCSCC4)n2)CCNCC3)cc1 assigned_label=1.0

Read the next record carefully.
inhibition in vivo at 50 mg/kg >= 10% for COc1cccc(Nc2nc(Cc3ccccc3)nc3c2CCNCC3)c1 ?
1.0

----------
Listed molecules paired with reported pIC50
Biological target: 5-hydroxytryptamine receptor 2A (Homo sapiens)
Assay: Displacement of [3H]-ketanserin from human recombinant 5HT-2A receptor expressed in CHOK1 cell membranes after 60 mins
Parameters: species or system CHO-K1
Please keep in mind that pIC50 is minus log10 of the molar concentration; only the number is needed.

given_smiles=Fc1ccc(Nc2nc(NCc3ccccc3)nc3[nH]ncc23)cc1 result_number=5.90
given_smiles=CN1CCN(c2nc(Nc3ccccc3)c3cn[nH]c3n2)CC1 result_number=7.60
given_smiles=Fc1ccc(Nc2nc(N3CCCCC3)nc3[nH]ncc23)cc1 result_number=5.66

pIC50 lookup needed for CN(C)c1nc(Nc2ccc(F)cc2)c2cn[nH]c2n1 , thanks.
5.31

Next: Fc1cccc(Nc2nc(Cc3ccccc3)nc3c2CCNCC3)c1
8.31

What about Cc1ccc(CNc2nc(Nc3ccc(F)cc3)c3cn[nH]c3n2)cc1 ?
6.02

Entry COc1ccc(Nc2nc(N3CCN(c4ccc(F)cc4)CC3)nc3[nH]ncc23)cc1 please
6.16

What would you report for CCN(CC)c1nc(Nc2ccc(Cl)cc2)c2cn[nH]c2n1 ?
5.72

Entry CC1CCN(c2nc(Nc3ccc(F)cc3)c3cn[nH]c3n2)CC1 please
5.43

----------
Biological target: 5-hydroxytryptamine receptor 2C (Homo sapiens) (UniProt P28335)
Assay: Displacement of [3H]-mesulergine from human recombinant 5HT-2C receptor expressed in CHOK1 cell membranes at 10 uM after 30 mins relative to control
Details: CHO-K1
# inhibition per entry
I only need the number, in %, no unit after it.

The cases that follow already have their inhibition on record.
given_smiles=Fc1ccc(Nc2nc(N3CCOCC3)nc3[nH]ncc23)cc1 assay_readout=inhibition unit=% result_number=81
given_smiles=Fc1ccc(Nc2nc(NC3CCCCC3)nc3[nH]ncc23)cc1 assay_readout=inhibition unit=% result_number=62
given_smiles=CCN(CC)c1nc(Nc2cccc(OC)c2)c2cn[nH]c2n1 assay_readout=inhibition unit=% result_number=61
given_smiles=CN1CCN(c2nc(Nc3ccc(F)cc3)c3cn[nH]c3n2)CC1 assay_readout=inhibition unit=% result_number=100
given_smiles=Fc1ccc(Nc2nc(N3CCN(c4ccc(F)cc4)CC3)nc3[nH]ncc23)cc1 assay_readout=inhibition unit=% result_number=96

Then there is this compound:
5-hydroxytryptamine receptor 2C (Homo sapiens) (UniProt P28335) / inhibition / Fc1ccc(Nc2nc(N3CCN(Cc4ccccc4)CC3)nc3[nH]ncc23)cc1 : value?
96

----------
Target: 5-hydroxytryptamine receptor 2A (Homo sapiens, UniProt P28223)
Sequence (P28223 whole entry): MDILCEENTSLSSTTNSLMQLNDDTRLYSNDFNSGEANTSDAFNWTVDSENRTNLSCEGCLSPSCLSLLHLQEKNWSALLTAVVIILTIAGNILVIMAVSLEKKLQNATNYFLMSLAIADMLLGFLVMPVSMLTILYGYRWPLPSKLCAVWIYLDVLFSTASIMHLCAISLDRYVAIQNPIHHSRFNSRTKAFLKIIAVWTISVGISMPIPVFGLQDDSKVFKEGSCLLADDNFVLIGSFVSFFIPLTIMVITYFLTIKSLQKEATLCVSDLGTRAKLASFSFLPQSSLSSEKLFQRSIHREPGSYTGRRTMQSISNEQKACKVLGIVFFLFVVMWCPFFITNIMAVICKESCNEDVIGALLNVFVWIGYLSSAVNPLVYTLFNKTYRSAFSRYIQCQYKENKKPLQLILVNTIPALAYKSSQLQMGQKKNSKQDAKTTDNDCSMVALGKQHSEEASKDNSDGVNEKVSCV
Assay: Displacement of [3H]-ketanserin from human recombinant 5HT-2A receptor expressed in CHOK1 cell membranes after 60 mins
Design: species or system CHO-K1
Each entry below carries its reported IC50.
Reply numerically in nM, unit not repeated.

Find the recorded IC50 belonging to c1ccc(Cc2nc3c(c(Nc4ccccc4)n2)CCNCC3)cc1 and report it.
2.69

// query: CN1CCN(c2nc(Nc3ccc(Cl)cc3)c3cn[nH]c3n2)CC1
28.8

Now the compound OCCN1CCN(c2nc(Nc3ccc(F)cc3)c3cn[nH]c3n2)CC1
163

Now consider Fc1ccc(Nc2nc(N3CCN(c4ccccc4)CC3)nc3[nH]ncc23)cc1 and answer again.
27.2
